Recorded values, source patent US20040024024A1.

- Tested target: Human recombinant MMP-2 (Homo sapiens, UniProt P08253)
- Construct: made in house; host or cells: MMP-2-transfected p2AHT2 cells
- Sequence (P08253 110-660): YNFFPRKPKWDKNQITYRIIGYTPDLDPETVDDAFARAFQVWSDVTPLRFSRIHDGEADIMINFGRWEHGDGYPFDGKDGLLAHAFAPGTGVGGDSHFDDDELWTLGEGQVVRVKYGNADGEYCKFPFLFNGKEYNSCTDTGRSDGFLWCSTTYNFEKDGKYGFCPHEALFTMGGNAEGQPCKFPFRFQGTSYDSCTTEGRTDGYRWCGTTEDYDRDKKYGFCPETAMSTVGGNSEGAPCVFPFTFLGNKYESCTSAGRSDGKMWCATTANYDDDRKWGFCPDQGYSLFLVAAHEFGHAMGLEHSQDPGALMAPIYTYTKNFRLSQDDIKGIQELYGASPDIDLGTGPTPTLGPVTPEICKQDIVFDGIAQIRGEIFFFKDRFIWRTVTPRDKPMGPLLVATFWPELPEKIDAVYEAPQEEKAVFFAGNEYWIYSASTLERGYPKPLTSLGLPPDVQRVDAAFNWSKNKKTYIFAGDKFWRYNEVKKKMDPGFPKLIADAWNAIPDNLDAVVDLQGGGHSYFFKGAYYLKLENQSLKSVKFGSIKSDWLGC
- Assay explanation: In vitro MMP inhibition, IC50 determination (fluorogenic substrate I)
- Type: biochemical
- Condition label: value outside parenthesis
Test readout: IC50 (nM)

> print(dat)
                                smiles.data  test.readout  measured.result
1  CC(C)c1ccc(NC(=O)CCCOc2ccc(S(=O)(=O)C3(C(=O)NO)CCOCC3)cc2)cc1          IC50              2.7
2  O=C(NO)C1(S(=O)(=O)c2ccc(OCCCc3nnc(CC4CCCCC4)o3)cc2)CCOCC1          IC50              118

[a] COc1ccc2sc(SCCCOc3ccc(S(=O)(=O)C4(C(=O)NO)CCOCC4)cc3)nc2c1
[b] Cc1cccc(-c2nnc(CCCOc3ccc(S(=O)(=O)C4(C(=O)NO)CCOCC4)cc3)o2)c1
Query block: Looking at a and b , which one comes out lower in IC50 terms? Return value: the label identifying the chosen record.
Result block: a
(a: 16.7 nM, b: 173 nM)

---

- Tested target: Human recombinant MMP-13 (Homo sapiens, UniProt P45452)
- Construct: made in house; host or cells: baculovirus / insect cells
- Assay explanation: In vitro MMP inhibition, IC50 determination (fluorogenic substrate I)
- Assay type: biochemical
- Condition label: value outside parenthesis
Test readout: IC50 (nM)

[a] COc1ccc2sc(SCCCOc3ccc(S(=O)(=O)C4(C(=O)NO)CCOCC4)cc3)nc2c1
[b] COCCN1CCC(C(=O)NO)(S(=O)(=O)c2ccc(OCCCn3nnc(-c4ccccc4OC)n3)cc2)CC1
[c] O=C(NO)C1(S(=O)(=O)c2ccc(OCCCc3cccc(-c4cc(Cl)cc(Cl)c4)c3)cc2)CCOCC1
[d] COCCN1CCC(C(=O)NO)(S(=O)(=O)c2ccc(OCCCc3nc(-c4cccc5ccccc45)no3)cc2)CC1
Query block: Sort the listed entries by IC50, smallest first. As an answer, provide the labels arranged in the order called for.
Result block: a, d, b, c

---

- Tested target: Human recombinant MMP-13 (Homo sapiens, UniProt P45452)
- Construct: made in house; host or cells: baculovirus / insect cells
- Assay explanation: In vitro MMP inhibition, IC50 determination (fluorogenic substrate I)
- Type: biochemical
- Condition label: value outside parentheses (Ki in parenthesis)
pIC50: −log10 of the molar value.
Test readout: pIC50

The cases that follow already have their pIC50 on record.
> print(dat)
                                smiles.data                             tested.target  measured.result
1  CCCCCc1ccc(-c2nnc(CCCOc3ccc(S(=O)(=O)C4(C(=O)NO)CCOCC4)cc3)o2)cc1  Human recombinant MMP-13 (Homo sapiens, UniProt P45452)             7.87
2  O=C(NCCCOc1ccc(S(=O)(=O)C2(C(=O)NO)CCOCC2)cc1)c1cc2cc(O)ccc2cc1O  Human recombinant MMP-13 (Homo sapiens, UniProt P45452)             8.57
3  O=C(NCCCOc1ccc(S(=O)(=O)C2(C(=O)NO)CCOCC2)cc1)c1ccc([N+](=O)[O-])cc1  Human recombinant MMP-13 (Homo sapiens, UniProt P45452)             8.82
4  O=C(c1ccc(OC(F)(F)F)cc1)N1CC[C@@H](Oc2ccc(S(=O)(=O)C3(C(=O)NO)CCOCC3)cc2)C1  Human recombinant MMP-13 (Homo sapiens, UniProt P45452)             5.80

[a] O=C(NO)C1(S(=O)(=O)c2ccc(OCCCCCN3CCc4ccccc4C3)cc2)CCOCC1
[b] O=C(CCCOc1ccc(S(=O)(=O)C2(C(=O)NO)CCOCC2)cc1)Nc1ccccc1O
Query block: Task for the reader: decide whether a or b has the larger pIC50. Return value: the label identifying the chosen record.
Result block: b
(b: 9.30, a: 8.19)

---

Quick list: IC50 per entry.
- Tested target: Human recombinant MMP-1 (Homo sapiens, UniProt P03956)
- Construct: made in house; host or cells: MMP-1-transfected HT-1080 cells (spent media)
- Sequence (P03956 100-469): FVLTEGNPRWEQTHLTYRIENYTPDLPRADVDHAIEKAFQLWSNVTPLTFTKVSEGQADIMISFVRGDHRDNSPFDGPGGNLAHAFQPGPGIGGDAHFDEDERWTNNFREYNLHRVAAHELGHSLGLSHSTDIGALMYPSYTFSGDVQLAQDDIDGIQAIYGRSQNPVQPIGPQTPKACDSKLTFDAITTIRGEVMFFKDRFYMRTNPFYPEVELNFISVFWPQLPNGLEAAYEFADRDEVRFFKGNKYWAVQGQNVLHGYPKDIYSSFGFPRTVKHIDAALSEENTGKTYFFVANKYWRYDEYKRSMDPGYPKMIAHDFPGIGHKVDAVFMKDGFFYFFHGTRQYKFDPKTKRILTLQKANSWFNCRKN
- Assay explanation: In vitro MMP inhibition, IC50 determination (fluorogenic substrate I)
- Type: biochemical
- Condition label: value outside parenthesis

The cases that follow already have their IC50 on record.
> print(dat)
                                smiles.data  test.readout  measured.result
1  Cc1cc(OC(F)(F)F)ccc1NC(=O)CCCOc1ccc(S(=O)(=O)C2(C(=O)NO)CCOCC2)cc1          IC50          5.03 µM
2  O=C1N(CCCOc2ccc(S(=O)(=O)C3(C(=O)NO)CCOCC3)cc2)CCN1c1ccc(C(F)(F)F)cc1          IC50          5.93 µM

Query block: I'd like to know its IC50. The compound in question is "O=C(NO)C1(S(=O)(=O)c2ccc(OCCCc3cccc(-c4cccc(F)c4)c3)cc2)CCOCC1"
Result block: > 10 µM

Query block: Then this compound: "COCCN1CCC(C(=O)NO)(S(=O)(=O)c2ccc(OCCCCC(=O)c3ccc(N(C)C)cc3)cc2)CC1"
Result block: > 10 µM

Query block: Then this compound: "CC(C)Oc1ccc(-c2nnc(CCCOc3ccc(S(=O)(=O)C4(C(=O)NO)CCOCC4)cc3)o2)cc1"
Result block: > 10 µM

Query block: Then this compound: "COCCN1CCC(C(=O)NO)(S(=O)(=O)c2ccc(OCCCc3nc(-c4ccc(CC(C)C)cc4)no3)cc2)CC1"
Result block: > 10 µM

Query block: Then this compound: "O=C(NO)C1(S(=O)(=O)c2ccc(OCCCc3nnc(-c4ccccc4Cl)o3)cc2)CCOCC1"
Result block: > 10 µM

---

- Tested target: Human recombinant MMP-13 (Homo sapiens, UniProt P45452)
- Construct: made in house; host or cells: baculovirus / insect cells
- Assay explanation: In vitro MMP inhibition, IC50 determination (fluorogenic substrate I)
- Assay type: biochemical
- Condition label: value outside parenthesis
pIC50: −log10 of the molar value.
Test readout: pIC50

> print(dat)
                                smiles.data  test.readout  measured.result
1  Cc1ccccc1-c1cccc(CCCOc2ccc(S(=O)(=O)C3(C(=O)NO)CCOCC3)cc2)c1         pIC50             7.70

[A] O=C(NO)C1(S(=O)(=O)c2ccc(OCCCc3nc(-c4cccc([N+](=O)[O-])c4)no3)cc2)CCOCC1
[B] C[C@@H]1C(=O)N(CCCOc2ccc(S(=O)(=O)C3(C(=O)NO)CCOCC3)cc2)C(=O)N1c1ccc(OC(F)(F)F)cc1
[C] O=C1CN(c2ccc(OC(F)(F)F)cc2)C(=O)N1CCCOc1ccc(S(=O)(=O)C2(C(=O)NO)CCOCC2)cc1
Query block: Which order do these items take when sorted by rising pIC50? List them. As an answer, provide the labels arranged in the order called for.
Result block: B, C, A

---

- Tested target: Human recombinant MMP-14 (Homo sapiens)
- Construct: The catalytic domain enzyme was expressed in E. coli inclusion bodies, solubilized in urea; made in house
- Assay explanation: In vitro MMP inhibition, IC50 determination (fluorogenic substrate I)
- Assay type: biochemical
- Condition label: value outside parentheses
pIC50: −log10 of the molar value.
Quick list: pIC50 per entry.

The cases that follow already have their pIC50 on record.
> print(dat)
                                   compound                            tested.target  test.readout  measured.result
1  COC(=O)c1cccc(OCCOc2ccc(S(=O)(=O)C3(C(=O)NO)CCOCC3)cc2)c1 [Example 668]  Human recombinant MMP-14 (Homo sapiens)         pIC50             5.68
2  O=C(NO)C1(S(=O)(=O)c2ccc(OCCCc3cncc(-c4ccc(F)cc4)c3)cc2)CCOCC1 [Example 523]  Human recombinant MMP-14 (Homo sapiens)         pIC50           < 5.00
3  N#Cc1ccc(-c2cccc(CCCOc3ccc(S(=O)(=O)C4(C(=O)NO)CCOCC4)cc3)c2)cc1 [Example 624]  Human recombinant MMP-14 (Homo sapiens)         pIC50           < 5.00
4  O=C(NO)C1(S(=O)(=O)c2ccc(OCCCc3cc(-c4ccc(F)cc4)cs3)cc2)CCOCC1 [Example 607]  Human recombinant MMP-14 (Homo sapiens)         pIC50           < 5.00
5  O=C(NO)C1(S(=O)(=O)c2ccc(OCCOCc3ccccn3)cc2)CCOCC1 [Example 515]  Human recombinant MMP-14 (Homo sapiens)         pIC50           < 5.00

Query block: I'd like to know its pIC50. The compound in question is COCCN1CCC(C(=O)NO)(S(=O)(=O)c2ccc(OCCCSc3nc4ccccc4s3)cc2)CC1 [Example 615]
Result block: 5.17

Query block: Then this compound: O=C(NO)C1(S(=O)(=O)c2ccc(OCCCc3cccc(C4CCCCN4)c3)cc2)CCN(C2CC2)CC1 (centres unmarked) [Example 609]
Result block: < 5.00

Query block: Then this compound: O=C(NO)C1(S(=O)(=O)c2ccc(OCC3Cc4cc(Oc5ccccc5)ccc4O3)cc2)CCOCC1 (centres unmarked) [Example 664]
Result block: 5.58
